Consider the following compounds and their measured AC50 readings.
- Test target: Glucocorticoid receptor (Homo sapiens, UniProt P04150); note: assay procedure not described here
- Sequence (P04150 whole entry): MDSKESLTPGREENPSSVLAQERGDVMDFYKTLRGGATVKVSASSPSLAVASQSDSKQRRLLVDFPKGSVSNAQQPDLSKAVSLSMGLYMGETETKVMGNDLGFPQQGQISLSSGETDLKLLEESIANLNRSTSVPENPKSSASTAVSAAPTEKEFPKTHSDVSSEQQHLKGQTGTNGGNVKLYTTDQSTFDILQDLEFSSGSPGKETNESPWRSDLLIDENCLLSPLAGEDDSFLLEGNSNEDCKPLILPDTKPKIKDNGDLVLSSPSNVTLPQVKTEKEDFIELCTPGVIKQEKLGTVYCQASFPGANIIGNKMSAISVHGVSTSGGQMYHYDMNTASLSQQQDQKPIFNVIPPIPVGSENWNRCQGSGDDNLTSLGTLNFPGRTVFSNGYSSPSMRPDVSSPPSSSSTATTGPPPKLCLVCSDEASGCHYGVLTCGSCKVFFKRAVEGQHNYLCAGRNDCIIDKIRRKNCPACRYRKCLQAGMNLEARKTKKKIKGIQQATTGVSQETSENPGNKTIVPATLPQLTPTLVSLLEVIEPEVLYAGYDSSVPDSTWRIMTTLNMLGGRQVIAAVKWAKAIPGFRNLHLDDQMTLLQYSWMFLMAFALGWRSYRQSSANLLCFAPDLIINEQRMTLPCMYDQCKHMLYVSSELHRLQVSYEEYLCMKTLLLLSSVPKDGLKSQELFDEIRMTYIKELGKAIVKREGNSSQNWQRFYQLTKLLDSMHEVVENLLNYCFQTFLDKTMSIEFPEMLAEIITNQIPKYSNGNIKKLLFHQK
- Assay type: functional

Worked cases, answers included:
C[C@H]1Oc2cc(cnc2N)-c2c(nn(C)c2C#N)CN(C)C(=O)c2ccc(F)cc21 :: > 30 µM
CC1(C)O[C@@H]2C[C@H]3[C@@H]4C[C@H](F)C5=CC(=O)C=C[C@]5(C)[C@H]4[C@@H](O)C[C@]3(C)[C@]2(C(=O)CO)O1 [FLUNISOLIDE] :: > 30 µM
CCc1oc2ccccc2c1C(=O)c1cc(Br)c(O)c(Br)c1 :: > 30 µM
CC(C)C[C@H](CN)CC(=O)O :: > 30 µM
CC[C@H]1OC(=O)[C@H](C)[C@@H](O[C@H]2C[C@@](C)(OC)[C@@H](O)[C@H](C)O2)[C@H](C)[C@@H](O[C@@H]2O[C@H](C)C[C@H](N(C)C)[C@H]2O)[C@](C)(O)C[C@@H](C)/C(=N\OCOCCOC)[C@H](C)[C@@H](O)[C@]1(C)O :: > 30 µM

AC50 for "CC(=N)N1CC[C@H](SC2=C(C(=O)O)N3C(=O)[C@H]([C@@H](C)O)[C@H]3C2)C1" is > 300 µM

AC50 for CCOc1cc(CC(=O)N[C@@H](CC(C)C)c2ccccc2N2CCCCC2)ccc1C(=O)O [REPAGLINIDE] is > 30 µM

----------
- Test target: Gamma-aminobutyric acid receptor subunit alpha-1 (Rattus norvegicus, UniProt P62813); note: assay procedure not described here
- Sequence (P62813 whole entry): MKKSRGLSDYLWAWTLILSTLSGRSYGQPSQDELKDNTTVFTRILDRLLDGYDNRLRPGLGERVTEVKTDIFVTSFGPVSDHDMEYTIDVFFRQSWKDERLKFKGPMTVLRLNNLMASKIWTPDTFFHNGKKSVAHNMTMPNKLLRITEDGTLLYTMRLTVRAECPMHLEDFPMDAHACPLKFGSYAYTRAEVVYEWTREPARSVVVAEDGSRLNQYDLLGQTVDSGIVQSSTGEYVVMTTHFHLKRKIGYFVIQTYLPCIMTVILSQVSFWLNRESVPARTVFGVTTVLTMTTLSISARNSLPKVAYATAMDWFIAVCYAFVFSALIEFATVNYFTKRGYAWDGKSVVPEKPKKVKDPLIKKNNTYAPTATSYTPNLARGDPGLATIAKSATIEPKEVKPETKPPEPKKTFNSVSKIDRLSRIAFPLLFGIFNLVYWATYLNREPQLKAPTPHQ
- Type: functional
Readout name: AC50

Worked cases, answers included:
CC(C)OC(=O)C(C(=O)OC(C)C)=C1SC=CS1 [MALOTILATE] :: 15 µM
CC[C@H]1OC(=O)[C@H](C)[C@@H](O[C@H]2C[C@@](C)(OC)[C@@H](O)[C@H](C)O2)[C@H](C)[C@@H](O[C@@H]2O[C@H](C)C[C@H](N(C)C)[C@H]2O)[C@](C)(O)C[C@@H](C)/C(=N\OCOCCOC)[C@H](C)[C@@H](O)[C@]1(C)O :: > 30 µM
CS(=O)(=O)OCCCCOS(C)(=O)=O :: > 30 µM
NS(=O)(=O)c1cc2c(cc1C(F)(F)F)NC(Cc1ccccc1)NS2(=O)=O (stereo not given) [BENDROFLUMETHIAZIDE] :: > 10 µM

AC50 for O=C1CN2Cc3c(ccc(Cl)c3Cl)N=C2N1 [ANAGRELIDE] is > 10 µM

----------
- Test target: 5-hydroxytryptamine receptor 2B (Homo sapiens); note: assay procedure not described here
- Sequence (P41595 whole entry): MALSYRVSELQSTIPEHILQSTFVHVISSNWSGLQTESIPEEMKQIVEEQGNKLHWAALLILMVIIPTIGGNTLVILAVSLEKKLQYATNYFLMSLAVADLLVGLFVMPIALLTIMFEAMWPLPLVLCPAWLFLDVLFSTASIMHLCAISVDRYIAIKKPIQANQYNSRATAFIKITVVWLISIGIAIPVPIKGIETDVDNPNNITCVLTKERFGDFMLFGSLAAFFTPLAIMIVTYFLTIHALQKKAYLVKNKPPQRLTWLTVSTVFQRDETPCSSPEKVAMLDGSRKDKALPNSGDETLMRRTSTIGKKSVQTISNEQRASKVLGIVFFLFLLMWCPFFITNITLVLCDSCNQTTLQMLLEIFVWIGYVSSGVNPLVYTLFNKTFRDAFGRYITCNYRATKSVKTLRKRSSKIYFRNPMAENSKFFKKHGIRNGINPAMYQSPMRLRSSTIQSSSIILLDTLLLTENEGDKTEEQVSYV
- Assay type: functional, cell-based
Readout name: AC50

Worked cases, answers included:
NC(=O)CCC/N=C(\c1ccc(Cl)cc1)c1cc(F)ccc1O [PROGABIDE] :: > 10 µM
COC(=O)N[C@@H](C)CNc1nccc(-c2cn(C(C)C)nc2-c2cc(Cl)cc(NS(C)(=O)=O)c2F)n1 [ENCORAFENIB] :: > 30 µM
OCCN1CCN(CC/C=C2/c3ccccc3Sc3ccc(Cl)cc32)CC1 [ZUCLOPENTHIXOL] :: > 10 µM
CCOC(=O)Nc1ccc2c(c1)N(C(=O)CCN1CCOCC1)c1ccccc1S2 [MORICIZINE] :: > 30 µM

AC50 for CCCCC[C@H](O)/C=C/[C@H]1[C@H](O)CC(=O)[C@@H]1C/C=C\CCCC(=O)O [DINOPROSTONE] is > 30 µM

AC50 for CCCCC1(CC)C(=O)NC(=O)NC1=O [BUTETHAL] is > 30 µM

AC50 for Clc1cccc(Cl)c1N=C1NCCN1 [CLONIDINE] is > 10 µM

AC50 for COc1cc2c(Nc3ccc(Br)cc3F)ncnc2cc1OCC1CCN(C)CC1 [VANDETANIB] is > 30 µM

AC50 for C=CC1=C(C(=O)O)N2C(=O)[C@@H](NC(=O)/C(=N\OCC(=O)O)c3csc(N)n3)[C@H]2SC1 [CEFIXIME] is > 30 µM

This collection of values is drawn from ChEMBL document CHEMBL5291721.
